TARGET_UNDER_TEST: hDAAO holoenzyme (Homo sapiens, UniProt P14920)
Construct: made in house; host or cells: E. coli
Sequence (P14920 whole entry): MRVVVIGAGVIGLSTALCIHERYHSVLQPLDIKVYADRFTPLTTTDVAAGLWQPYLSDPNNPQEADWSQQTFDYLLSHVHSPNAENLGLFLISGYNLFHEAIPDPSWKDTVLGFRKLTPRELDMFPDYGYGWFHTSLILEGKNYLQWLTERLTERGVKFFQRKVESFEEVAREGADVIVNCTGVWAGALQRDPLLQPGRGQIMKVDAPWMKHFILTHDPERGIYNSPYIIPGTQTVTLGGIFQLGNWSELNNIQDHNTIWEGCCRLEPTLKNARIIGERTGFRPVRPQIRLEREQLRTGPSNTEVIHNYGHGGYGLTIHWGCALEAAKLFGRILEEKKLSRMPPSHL
RUN_DESCRIPTION: Ligand binding to hDAAO, protein fluorescence quenching
CONDITION_DESCRIPTION: low benzoate concentrations (≤ 20 μM); 15°C; read-out: Kd, first saturation
MEASURED_ENDPOINT: pKd
Please note pKd is a logarithmic value: minus log10 of concentration in mol/L. Answer with that number alone.

Supply measured pKd of O=C(O)c1ccccc1 [benzoate] in your reply. 6.48

----------
TARGET_UNDER_TEST: hDAAO (Homo sapiens)
Construct: made in house; host or cells: E. coli
RUN_DESCRIPTION: Inhibition of D-serine oxidation by L-serine
Format: biochemical
CONDITION_DESCRIPTION: competitive versus D-serine
MEASURED_ENDPOINT: pKi
Scale for pKi: -log10 of concentration given in mol/L; no unit attached.

Provide only the value of recorded pKi for N[C@@H](CO)C(=O)O 1.58

----------
TARGET_UNDER_TEST: hDAAO apoprotein (Homo sapiens, UniProt P14920)
Construct: made in house; host or cells: E. coli
RUN_DESCRIPTION: Holoenzyme reconstitution, decrease in flavin fluorescence at 528 nm
Format: binding
CONDITION_DESCRIPTION: 70 μM benzoate; monophasic; read-out: Kd
Experimental: The holoenzyme reconstitution process was also investigated by adding increasing concentrations of apoprotein to ~1 μM of FAD and following the decrease in flavin fluorescence at 528 nm (excitation at 450 nm).
MEASURED_ENDPOINT: Kd (nM)
// return numeric value only (unit: nM, not printed)

Supply measured Kd of Cc1cc2nc3c(=O)[nH]c(=O)nc-3n(C[C@H](O)[C@H](O)[C@H](O)COP(=O)(O)OP(=O)(O)OC[C@H]3O[C@@H](n4cnc5c(N)ncnc54)[C@H](O)[C@@H]3O)c2cc1C in your reply. 400

----------
TARGET_UNDER_TEST: hDAAO holoenzyme (Homo sapiens)
Construct: made in house; host or cells: E. coli
RUN_DESCRIPTION: Ligand binding to hDAAO, protein fluorescence quenching
CONDITION_DESCRIPTION: higher ligand concentrations, ~80% of fluorescence change; 15°C; read-out: Kd, second saturation
MEASURED_ENDPOINT: pKd
API: returns pKd as number; meaning -log10 of concentration in mol/L.

Determine its reported pKd: O=C(O)c1ccccc1 [benzoate] 2.59

----------
TARGET_UNDER_TEST: hDAAO apoprotein (Homo sapiens)
Construct: made in house; host or cells: E. coli
RUN_DESCRIPTION: FAD binding to hDAAO apoprotein, protein fluorescence quenching
CONDITION_DESCRIPTION: 7 μM benzoate; 15°C; read-out: Kd, second phase
MEASURED_ENDPOINT: pKd
In simple prose, pKd is minus the logarithm base ten of a concentration in moles per litre.

# return pKd of Cc1cc2nc3c(=O)[nH]c(=O)nc-3n(C[C@H](O)[C@H](O)[C@H](O)COP(=O)(O)OP(=O)(O)OC[C@H]3O[C@@H](n4cnc5c(N)ncnc54)[C@H](O)[C@@H]3O)c2cc1C [FAD] (system: hDAAO apoprotein (Homo sapiens)) 4.72

----------
TARGET_UNDER_TEST: hDAAO apoprotein (Homo sapiens)
Construct: made in house; host or cells: E. coli
RUN_DESCRIPTION: FAD binding to hDAAO apoprotein, protein fluorescence quenching
CONDITION_DESCRIPTION: absence of active-site ligand; 15°C; read-out: Kd, first phase
MEASURED_ENDPOINT: Kd (nM)
Could you give me the number in nM? Just the number is fine.

For the compound Cc1cc2nc3c(=O)[nH]c(=O)nc-3n(C[C@H](O)[C@H](O)[C@H](O)COP(=O)(O)OP(=O)(O)OC[C@H]3O[C@@H](n4cnc5c(N)ncnc54)[C@H](O)[C@@H]3O)c2cc1C [FAD] , report Kd. 430

----------
TARGET_UNDER_TEST: hDAAO apoprotein (Homo sapiens)
Construct: made in house; host or cells: E. coli
RUN_DESCRIPTION: FAD binding to hDAAO apoprotein, protein fluorescence quenching
CONDITION_DESCRIPTION: absence of active-site ligand; 15°C; read-out: Kd, second phase
pKd: −log10 of the molar value.
MEASURED_ENDPOINT: pKd

Give the reported pKd for this compound. Cc1cc2nc3c(=O)[nH]c(=O)nc-3n(C[C@H](O)[C@H](O)[C@H](O)COP(=O)(O)OP(=O)(O)OC[C@H]3O[C@@H](n4cnc5c(N)ncnc54)[C@H](O)[C@@H]3O)c2cc1C < 4.52

----------
TARGET_UNDER_TEST: hDAAO apoprotein (Homo sapiens)
Construct: made in house; host or cells: E. coli
RUN_DESCRIPTION: FAD binding to hDAAO apoprotein, protein fluorescence quenching
CONDITION_DESCRIPTION: 7 μM benzoate; 15°C; read-out: Kd, first phase
MEASURED_ENDPOINT: Kd
Please state the value followed by its unit.

State, in one line, measured Kd of Cc1cc2nc3c(=O)[nH]c(=O)nc-3n(C[C@H](O)[C@H](O)[C@H](O)COP(=O)(O)OP(=O)(O)OC[C@H]3O[C@@H](n4cnc5c(N)ncnc54)[C@H](O)[C@@H]3O)c2cc1C 430 nM

----------
TARGET_UNDER_TEST: hDAAO (Homo sapiens, UniProt P14920)
Construct: made in house; host or cells: E. coli
RUN_DESCRIPTION: Oxygen-consumption activity assay, apparent kinetic parameters (substrate specificity)
Format: biochemical
MEASURED_ENDPOINT: pKi
Value format note: pKi is -log10 of concentration (mol/L); just state the number.

Param request: pKi | system hDAAO (Homo sapiens, UniProt P14920) | item N[C@H](Cc1ccc(O)c(O)c1)C(=O)O [D-DOPA, 3,4-dihydroxyphenylalanine] 1.38

----------
TARGET_UNDER_TEST: hDAAO apoprotein (Homo sapiens)
Construct: made in house; host or cells: E. coli
RUN_DESCRIPTION: Holoenzyme reconstitution, decrease in flavin fluorescence at 528 nm
Type: binding
CONDITION_DESCRIPTION: absence of benzoate; ~1 μM FAD titrated with apoprotein; read-out: Kd, 1
MEASURED_ENDPOINT: Kd (nM)
// note: answer is a bare numeric in nM

Provide measured Kd value, entry: Cc1cc2nc3c(=O)[nH]c(=O)nc-3n(C[C@H](O)[C@H](O)[C@H](O)COP(=O)(O)OP(=O)(O)OC[C@H]3O[C@@H](n4cnc5c(N)ncnc54)[C@H](O)[C@@H]3O)c2cc1C 670

----------
TARGET_UNDER_TEST: hDAAO apoprotein (Homo sapiens, UniProt P14920)
Construct: made in house; host or cells: E. coli
RUN_DESCRIPTION: Holoenzyme reconstitution, decrease in flavin fluorescence at 528 nm
Assay type: binding
CONDITION_DESCRIPTION: absence of benzoate; ~1 μM FAD titrated with apoprotein; read-out: Kd, 2
MEASURED_ENDPOINT: pKd
Scale note: pKd = -log10(concentration in M).

For the compound Cc1cc2nc3c(=O)[nH]c(=O)nc-3n(C[C@H](O)[C@H](O)[C@H](O)COP(=O)(O)OP(=O)(O)OC[C@H]3O[C@@H](n4cnc5c(N)ncnc54)[C@H](O)[C@@H]3O)c2cc1C , give its reported pKd. 5.40

----------
TARGET_UNDER_TEST: hDAAO (Homo sapiens)
Construct: made in house; host or cells: E. coli
RUN_DESCRIPTION: Oxygen-consumption activity assay, apparent kinetic parameters (substrate specificity)
Assay type: biochemical
CONDITION_DESCRIPTION: apparent; 21% oxygen saturation, pH 8.5, 25°C
MEASURED_ENDPOINT: kcat

Tell us which kcat value is on record for CN[C@H](CC(=O)O)C(=O)O [N-Methyl-D-aspartate] b. d.

Give reported kcat value for N[C@H](CCC(=O)O)C(=O)O [D-Glutamate] b. d.

Respond only with kcat recorded for N[C@H](Cc1ccc(O)c(O)c1)C(=O)O [D-DOPA, 3,4-dihydroxyphenylalanine] ~ 40 s^−1

Give the value of kcat reported for the following: Nc1ccccc1C(=O)C[C@@H](N)C(=O)O 0.09 ± 0.01 s⁻¹

----------
TARGET_UNDER_TEST: hDAAO apoprotein (Homo sapiens)
Construct: made in house; host or cells: E. coli
RUN_DESCRIPTION: FAD binding to hDAAO apoprotein, protein fluorescence quenching
CONDITION_DESCRIPTION: 70 μM benzoate; 15°C; read-out: Kd, single saturation
MEASURED_ENDPOINT: Kd (nM)
Report the figure in nM without appending any unit label.

Return reported Kd. Input compound: Cc1cc2nc3c(=O)[nH]c(=O)nc-3n(C[C@H](O)[C@H](O)[C@H](O)COP(=O)(O)OP(=O)(O)OC[C@H]3O[C@@H](n4cnc5c(N)ncnc54)[C@H](O)[C@@H]3O)c2cc1C [FAD] 480
